System: Jnk1 + Jnk2
Experiment: Cell-free kinase assay (ALPHA technology), Jnk1 + Jnk2
Type: biochemical
Settings: at 10 μM or 100 μM* ATP, recombinant human kinases
Where a name gives a salt, the structure may show the parent alone.
log10 of IC50 for assorted molecules
Parameter: log10 of IC50 (log10 of the value in µM)

{"columns": ["Molecule", "log10 of IC50"],
 "data": [
  ["COCCOC(=O)Oc1ccc(-c2cnc3ccc(NC(=O)NCCCCO)nc3n2)cc1 [Compound 58, hydrochloride]", 0.40],
  ["CCOP(=O)(CCCCNC(=O)Nc1ccc2ncc(-c3ccc(O)c(OC)c3)nc2n1)OCC", 0.92],
  ["CCNC(=O)Nc1ccc2ncc(-c3ccc(OC(=O)N(C)C)cc3)nc2n1", 1.00],
  ["CCNC(=O)Nc1ccc2ncc(-c3ccc(OC(=O)N(CC)CC)cc3)nc2n1", -0.20],
  ["CCNC(=O)Nc1ccc2ncc(-c3ccc(NC(=O)COCCOC)cc3)nc2n1", 1.14],
  ["CCNC(=O)Nc1ccc2ncc(-c3ccc(OC(=O)OCCOC)cc3)nc2n1 [Compound 56]", 0.49],
  ["CCNC(=O)Nc1ccc(-c2cnc3ccc(NC(=O)NCC)nc3n2)cc1", 0.76],
  ["CCNC(=O)Nc1ccc2ncc(Nc3ccc(NC(C)=O)cc3)nc2n1", 1.31]
]}
